Organism: Rattus norvegicus
Test: DrugMatrix - Regimen: Daily Repeat
Type: toxicity, organism-based, Sprague-Dawley
Set-up: regimen Daily Repeat, gender Male, age 6-8 weeks
Conditions: in vivo, po, 0 mg/kg, 72 h, tissue Blood, route oral GAVAGE, dose level Control, time 3 day, vehicle .5 % CMC
Parameter ABSOLUTE MONOCYTE: see the listing below.
Observation type: ABSOLUTE MONOCYTE

[
  {
    "Compound": "O=C1C(CC[S+]([O-])c2ccccc2)C(=O)N(c2ccccc2)N1c1ccccc1 (centres undefined) [SULFINPYRAZONE]",
    "Measured value": "180.83 CELLS/uL"
  },
  {
    "Compound": "O=C1Nc2ccc(Cl)cc2C(c2ccccc2Cl)=NC1O (centres undefined) [LORAZEPAM]",
    "Measured value": "180.83 CELLS/uL"
  },
  {
    "Compound": "CN/C(=N/CCSCc1nc[nH]c1C)NC#N [CIMETIDINE]",
    "Measured value": "183.17 CELLS/uL"
  },
  {
    "Compound": "COc1cc2nc(N3CCN(C(=O)c4ccco4)CC3)nc(N)c2cc1OC [PRAZOSIN]",
    "Measured value": "180.83 CELLS/uL"
  }
]
